System: U251 human glioblastoma cell line
protocol.text: in vitro FM-HCR assay of MGMT activity (mPlum O^6MeG reporter plasmid)
Assay type: cell-based
assay.setup: DMSO condition; relative to wild-type MGMT in same condition
Method: The present Example includes, in part, an in vitro fluorescence multiplex host cell reactivation (FM-HCR) assay in which a reporter plasmid with O^6MeG-containing oligonucleotides is used. The oligonucleotides induce transcription errors that lead to expression of fluorescent mPlum protein. […] All transfected cells were analyzed by flow cytometry at 24-hours after transfection. Data was analyzed as previously described in Nagel et al., 2014 PNAS USA 111 (18): E1823-32 and Piett et al., 2021 Nat. […]
readout.label: MGMT activity (% of WT) DMSO

molecule	MGMT activity (% of WT) DMSO
R135K: MGMT polypeptide with mutation R135K (protein) MDKDCEMKRTTLDSPLGKLELSGCEQGLHEIKLLGKGTSAADAVEVPAPAAVLGGPEPLMQCTAWLNAYFHQPEAIEEFPVPALHHPVFQQESFTRQVLWKLLKVVKFGEVISYQQLAALAGNPKAARAVGGAMKGNPVPILIPCHRVVCSSGAVGNYSGGLAVKEWLLAHEGHRLGKPGLGGSSGLAGAWLKGAGATSGSPPAGRN	138.8 % of WT
A170S: MGMT polypeptide with mutation A170S (protein) MDKDCEMKRTTLDSPLGKLELSGCEQGLHEIKLLGKGTSAADAVEVPAPAAVLGGPEPLMQCTAWLNAYFHQPEAIEEFPVPALHHPVFQQESFTRQVLWKLLKVVKFGEVISYQQLAALAGNPKAARAVGGAMRGNPVPILIPCHRVVCSSGAVGNYSGGLAVKEWLLSHEGHRLGKPGLGGSSGLAGAWLKGAGATSGSPPAGRN	117.5 % of WT

Turning now to a further record.
Form field: reported MGMT activity (% of WT) DMSO of Y158H: MGMT polypeptide with mutation Y158H (protein) MDKDCEMKRTTLDSPLGKLELSGCEQGLHEIKLLGKGTSAADAVEVPAPAAVLGGPEPLMQCTAWLNAYFHQPEAIEEFPVPALHHPVFQQESFTRQVLWKLLKVVKFGEVISYQQLAALAGNPKAARAVGGAMRGNPVPILIPCHRVVCSSGAVGNHSGGLAVKEWLLAHEGHRLGKPGLGGSSGLAGAWLKGAGATSGSPPAGRN
79.3 % of WT
